biological target: rat mGlu3 (Rattus norvegicus (Rat), UniProt P31422); test: mGlu3 Ca2+ flux assay; assay type: cell-based; details: amplitude of response at 30 μM test compound as % of maximal response to glutamate; read-out: rat mGlu3 Glu max (%)
Sequence (P31422 23-879): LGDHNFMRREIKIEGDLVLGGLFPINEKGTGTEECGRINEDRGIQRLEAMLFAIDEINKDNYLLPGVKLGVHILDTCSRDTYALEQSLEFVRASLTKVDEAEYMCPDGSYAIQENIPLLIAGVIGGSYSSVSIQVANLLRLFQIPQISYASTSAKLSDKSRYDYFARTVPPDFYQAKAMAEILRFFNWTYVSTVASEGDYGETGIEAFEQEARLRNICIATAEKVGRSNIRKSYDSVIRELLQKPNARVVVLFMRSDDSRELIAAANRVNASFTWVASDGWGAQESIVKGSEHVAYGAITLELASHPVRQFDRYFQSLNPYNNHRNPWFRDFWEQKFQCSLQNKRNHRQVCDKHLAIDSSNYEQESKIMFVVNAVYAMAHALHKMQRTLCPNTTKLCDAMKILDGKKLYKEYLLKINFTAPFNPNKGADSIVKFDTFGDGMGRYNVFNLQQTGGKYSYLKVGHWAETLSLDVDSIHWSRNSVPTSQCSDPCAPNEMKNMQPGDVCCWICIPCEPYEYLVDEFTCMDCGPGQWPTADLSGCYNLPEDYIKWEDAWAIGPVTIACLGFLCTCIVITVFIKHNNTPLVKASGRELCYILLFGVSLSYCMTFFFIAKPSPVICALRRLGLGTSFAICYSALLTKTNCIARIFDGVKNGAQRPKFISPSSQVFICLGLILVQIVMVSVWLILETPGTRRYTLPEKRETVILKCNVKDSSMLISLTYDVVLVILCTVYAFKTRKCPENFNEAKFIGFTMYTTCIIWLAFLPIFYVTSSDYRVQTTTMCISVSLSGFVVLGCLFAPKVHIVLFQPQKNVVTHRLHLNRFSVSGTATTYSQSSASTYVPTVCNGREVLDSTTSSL
The entries below are paired with their reported remaining activity at 30 µM.
Metric: remaining activity at 30 µM (%)

Compound | Metric | Assay Result
COc1ccc(N(C)Cc2cc3n(n2)CCN(c2cc(Cl)cc(OC)c2)C3=O)cc1 [Compound 134] | remaining activity at 30 µM | 1.77
O=C1c2cc(CNc3ccc(OC(F)F)cc3F)nn2CCN1c1cc(Cl)ccn1 [Compound 139] | remaining activity at 30 µM | 2.59
O=C1c2cc(CNc3ccc(OC(F)F)cc3F)nn2CCN1c1ccc(Cl)cc1F [Compound 149] | remaining activity at 30 µM | 25.8
COc1cccc(NCc2cc3n(n2)[C@H](C)CN(c2ccc(F)cc2)C3=O)c1 [Compound 52] | remaining activity at 30 µM | 4.06

###

target: rat mGlu3 (Rattus norvegicus (Rat)); experiment: mGlu3 Ca2+ flux assay; type: cell-based; conditions: NAM potency, decrease of glutamate EC80 response; >30,000 = no measurable activity; >10,000 = no plateau; read-out: rat mGlu3 IC50
Metric: IC50 (nM)

Molecule | Assay Result
C[C@H]1CN(c2ccc(F)cc2)C(=O)c2cc(CNc3cc(F)cc(F)c3)nn21 [Compound 74] | 2350
C[C@H]1CN(c2ccc(F)cc2)C(=O)c2cc(CNc3cc(F)ccc3F)nn21 [Compound 71] | 1310
COc1ccc(N(C)Cc2cc3n(n2)CCN(c2cccc(F)c2F)C3=O)cc1 [Compound 107] | 1030
O=C1c2cc(CNc3ccc(OC(F)F)cc3)nn2CCN1c1ccc(F)cc1 [Compound 20] | 709
O=C1c2cc(CNc3cccc(F)c3F)nn2CCN1c1ccc(F)cc1 [Compound 27] | 586
C[C@H]1CN(c2ccc(F)cc2)C(=O)c2cc(CNc3ccc(CC#N)cc3)nn21 [Compound 67] | 2560
O=C1c2cc(CNc3c(F)cc(F)cc3F)nn2CCN1c1ccc(F)cc1 [Compound 33] | 1270
O=C1c2cc(CNc3ccc(F)cc3)nn2CCN1c1ccc(F)cc1 [Compound 13] | 1150
COc1ccc(N(C)Cc2cc3n(n2)CCN(c2ccc(F)cc2C)C3=O)cc1 [Compound 109] | 1320
Cc1cccc(NCc2cc3n(n2)[C@H](C)CN(c2ccc(F)cc2)C3=O)c1 [Compound 50] | 3050
COc1ccc(NC(C)c2cc3n(n2)CCN(c2ccc(F)cc2)C3=O)cc1 (centres unmarked) [Compound 169] | 7740
O=C1c2cc(CNc3ccc(F)cn3)nn2CCN1c1ccc(F)cc1 [Compound 155] | 1460
O=C1c2cc(CNc3ccccc3F)nn2CCN1c1ccc(F)cc1 [Compound 3] | 944
C[C@H]1CN(c2ccc(F)cc2)C(=O)c2cc(CNc3ccc(OC(F)F)cc3)nn21 [Compound 65] | 1340
O=C1c2cc(CNc3ccccn3)nn2CCN1c1ccc(F)cc1 [Compound 156] | 3190
CN(Cc1cc2n(n1)CCN(c1ccc(F)cc1)C2=O)c1ccccc1 [Compound 82] | 1220
COc1ccc(N(C)Cc2cc3n(n2)CCN(c2ccc(F)cc2Cl)C3=O)cc1 [Compound 130] | 1950
COc1ccc(N(C)Cc2cc3n(n2)CCN(c2c(F)cc(F)cc2F)C3=O)cc1 [Compound 102] | 801
COc1ccc(N(C)Cc2cc3n(n2)CCN(c2ccc(C#N)cc2)C3=O)cc1 [Compound 118] | 1970
COc1ccc(N(C)Cc2cc3n(n2)CCN(c2cccc(F)c2Cl)C3=O)cc1 [Compound 126] | 1600
O=C1c2cc(CNc3ncccc3C(F)(F)F)nn2CCN1c1ccc(F)cc1 [Compound 162] | 3840
CC(Nc1ccccc1)c1cc2n(n1)CCN(c1ccc(F)cc1)C2=O (centres unmarked) [Compound 170] | 2850
O=C1c2cc(CNc3ncccc3F)nn2CCN1c1ccc(F)cc1 [Compound 165] | 2110
O=C1c2cc(CNc3cccc(C(F)(F)F)n3)nn2CCN1c1ccc(F)cc1 [Compound 166] | 2350
Cc1cccnc1NCc1cc2n(n1)CCN(c1ccc(F)cc1)C2=O [Compound 160] | 4700
CN(Cc1cc2n(n1)CCN(c1ccc(F)cc1)C2=O)c1cccc(Cl)c1 [Compound 87] | 805
O=C1c2cc(CNc3ccc(OC(F)F)cc3F)nn2CCN1c1ccc(F)c(F)c1 [Compound 145] | 800
COc1ccc(N(C)Cc2cc3n(n2)CCN(c2ccccc2F)C3=O)cc1 [Compound 105] | 871
COc1cccc(NCc2cc3n(n2)CCN(c2ccc(F)cc2)C3=O)c1 [Compound 10] | 1780
COc1ccc(N(C)Cc2cc3n(n2)CCN(c2ccc(F)c(Cl)c2)C3=O)cc1 [Compound 133] | 1210
O=C1c2cc(CNc3c(F)cccc3F)nn2CCN1c1ccc(F)cc1 [Compound 32] | 1050
COc1ccc(NCc2cc3n(n2)CCN(c2ccc(Cl)cc2)C3=O)cc1 [Compound 81] | 1360
COc1ccc(N(C)Cc2cc3n(n2)CCN(c2ccc(C)cc2F)C3=O)cc1 [Compound 108] | 1250
C[C@H]1CN(c2ccc(F)cc2)C(=O)c2cc(CNc3cccc(F)c3F)nn21 [Compound 69] | 2220
O=C1c2cc(CNc3ccc(OC(F)F)cc3F)nn2CCN1c1ncccc1F [Compound 143] | 950
